# target desc: Protein-arginine deiminase type-3 (Homo sapiens)
# protocol notes: single-point PAD isozyme enzyme inhibition – biochemical, colorimetric, BAEE substrate, HTS hits, selectivity assay for PAD4 inhibitor project, late-stage follow-up (AID 588488)
# condition label: Recombinant PAD1-4, BAEE citrulline colorimetric absorbance; PAD3; at 10 µM; stronger effect = higher value
readout kind: inhibition (%)

Consider the following illustrative entries.
1) Cc1ccc(CNC(=O)c2ccc(C)c(S(=O)(=O)N3CCCCC3)c2)cc1	-2
2) O=c1cc(-c2ccc(Cl)cc2)[nH][nH]1	-4

1 = Cc1nn(-c2ccccc2)c(C)c1NC(=O)COc1ccc(Cl)cc1Cl
2 = COc1cccc2cc(C(=O)NC3CC(C)(C)NC(C)(C)C3)c(=O)oc12
3 = CC(NC(=O)Nc1ccc(O)cc1)(C(F)(F)F)C(F)(F)F
Rank order required: inhibition, descending. Field: ranking. Enter the labels in the order requested.
2, 1, 3

I = CCN(CC)c1cccc(OC2=NS(=O)(=O)c3ccccc32)c1
II = COc1cccc(NC(=O)C2c3cc(OC)c(OC)cc3C(=O)N(C)C2c2cccnc2)c1 (stereo unspecified)
III = N#CCCN(C(=O)Cn1nc(C(=O)O)c2ccccc2c1=O)c1ccccc1
IV = COc1ccc(CCNC(=O)COC(=O)c2ccc(C)s2)cc1
Form: Sort by [inhibition] Order [ ascending ] Field: ranking. Enter the labels in the order requested.
IV, III, II, I
(IV: -24%, III: -12%, II: -3%, I: 6%)

P = Cc1cc2ncn(-c3ncccc3[N+](=O)[O-])c2cc1C
Q = Cc1nn(-c2cccc(Cl)c2)c2c1C(c1cccnc1)C(C#N)=C(N)O2 (stereo unspecified)
// pick min by inhibition: P , Q Reply with the label of the item you choose.
Q
